target: T1, human TMEM106B (human, UniProt Q9NUM4 2-274); test: FACS A549 1 ug/ml
T1 construct: full-length, transiently expressed on HEK293 cells, or natively expressed on HeLa, U251 and A549 cells (the cell is named under assay); also the source of the Pepscan peptides; also called huTMEM106B; huTMEM
measurement name: MFI (MFI)

1) TM-25 (antibody, V domains shown) VH: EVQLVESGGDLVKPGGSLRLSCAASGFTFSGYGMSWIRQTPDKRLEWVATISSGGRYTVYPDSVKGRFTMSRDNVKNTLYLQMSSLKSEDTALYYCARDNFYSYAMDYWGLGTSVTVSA VL: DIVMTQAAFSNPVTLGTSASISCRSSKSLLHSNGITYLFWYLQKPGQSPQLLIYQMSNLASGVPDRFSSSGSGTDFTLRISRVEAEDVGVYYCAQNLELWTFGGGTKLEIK: 4530
2) TM-35 (antibody, V domains shown) VH: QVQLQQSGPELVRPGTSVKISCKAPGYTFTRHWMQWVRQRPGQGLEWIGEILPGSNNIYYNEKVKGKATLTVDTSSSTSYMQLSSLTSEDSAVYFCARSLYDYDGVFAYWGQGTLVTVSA VL: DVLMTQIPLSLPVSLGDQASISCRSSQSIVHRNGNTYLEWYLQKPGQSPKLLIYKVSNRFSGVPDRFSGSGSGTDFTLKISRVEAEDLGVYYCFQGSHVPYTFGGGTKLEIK: 3270
3) TM-24 (antibody, V domains shown, mouse IgG (hybridoma)) VH: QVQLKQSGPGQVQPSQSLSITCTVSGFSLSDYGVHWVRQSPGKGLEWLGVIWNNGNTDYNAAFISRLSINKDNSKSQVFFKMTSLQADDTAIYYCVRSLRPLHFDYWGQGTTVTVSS VL: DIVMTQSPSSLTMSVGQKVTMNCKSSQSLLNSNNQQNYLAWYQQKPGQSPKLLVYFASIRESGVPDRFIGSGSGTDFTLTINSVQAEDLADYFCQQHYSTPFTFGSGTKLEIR: 2880
4) TM-12 (antibody, V domains shown) VH: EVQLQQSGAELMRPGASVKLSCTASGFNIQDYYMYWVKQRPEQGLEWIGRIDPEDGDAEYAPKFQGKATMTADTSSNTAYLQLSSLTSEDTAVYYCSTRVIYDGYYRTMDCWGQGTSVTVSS VL: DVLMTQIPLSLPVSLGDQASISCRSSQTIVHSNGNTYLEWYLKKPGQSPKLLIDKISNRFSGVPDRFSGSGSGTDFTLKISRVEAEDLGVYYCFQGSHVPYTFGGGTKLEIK: 3150
5) TM-6 (antibody, V domains shown, mouse IgG (hybridoma)) VH: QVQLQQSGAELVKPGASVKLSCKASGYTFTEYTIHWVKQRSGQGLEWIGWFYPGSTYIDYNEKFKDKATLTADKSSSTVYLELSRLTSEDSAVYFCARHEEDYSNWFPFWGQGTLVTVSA VL: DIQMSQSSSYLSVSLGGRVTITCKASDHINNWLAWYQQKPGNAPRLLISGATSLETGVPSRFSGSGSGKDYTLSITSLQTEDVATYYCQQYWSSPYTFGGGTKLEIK: 418
6) TM-16 (antibody, V domains shown) VH: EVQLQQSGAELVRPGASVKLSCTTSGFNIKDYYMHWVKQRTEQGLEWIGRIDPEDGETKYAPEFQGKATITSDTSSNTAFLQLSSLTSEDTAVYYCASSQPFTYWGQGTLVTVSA VL: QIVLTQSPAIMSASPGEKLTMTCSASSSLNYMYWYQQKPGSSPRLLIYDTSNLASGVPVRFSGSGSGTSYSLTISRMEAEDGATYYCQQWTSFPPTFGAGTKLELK: 409
7) TM-37 (antibody, V domains shown) VH: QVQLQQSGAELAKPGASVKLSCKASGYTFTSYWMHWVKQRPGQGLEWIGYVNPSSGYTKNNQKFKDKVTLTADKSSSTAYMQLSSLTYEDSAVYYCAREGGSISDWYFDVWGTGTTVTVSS VL: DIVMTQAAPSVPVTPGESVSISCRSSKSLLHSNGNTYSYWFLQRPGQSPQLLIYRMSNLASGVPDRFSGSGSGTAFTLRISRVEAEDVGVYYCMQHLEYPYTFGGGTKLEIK: 2980
8) TM-11 (antibody, V domains shown) VH: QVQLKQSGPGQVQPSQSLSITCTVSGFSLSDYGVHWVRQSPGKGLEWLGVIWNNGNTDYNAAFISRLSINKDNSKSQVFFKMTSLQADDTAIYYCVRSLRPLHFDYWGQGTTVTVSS VL: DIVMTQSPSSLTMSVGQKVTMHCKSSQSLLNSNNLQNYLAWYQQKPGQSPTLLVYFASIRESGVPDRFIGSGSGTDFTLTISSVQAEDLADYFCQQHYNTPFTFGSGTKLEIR: 2870
9) TM-1 (antibody, V domains shown) VH: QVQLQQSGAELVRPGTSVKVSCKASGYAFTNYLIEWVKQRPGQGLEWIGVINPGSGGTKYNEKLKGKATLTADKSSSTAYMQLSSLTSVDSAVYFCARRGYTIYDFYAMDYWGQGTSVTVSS VL: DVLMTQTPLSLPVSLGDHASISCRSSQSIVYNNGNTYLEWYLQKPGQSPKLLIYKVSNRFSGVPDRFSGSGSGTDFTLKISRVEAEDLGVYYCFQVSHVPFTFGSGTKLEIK: 364
10) TM-27 (antibody, V domains shown) VH: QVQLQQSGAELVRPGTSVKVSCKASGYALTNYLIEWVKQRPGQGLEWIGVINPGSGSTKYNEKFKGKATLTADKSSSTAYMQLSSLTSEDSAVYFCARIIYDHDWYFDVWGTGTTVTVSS VL: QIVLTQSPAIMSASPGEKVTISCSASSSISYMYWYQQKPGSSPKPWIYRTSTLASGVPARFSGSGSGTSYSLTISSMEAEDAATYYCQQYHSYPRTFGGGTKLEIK: 431
